pKi: −log10 of the molar value.
pKi data for human NK-3 receptor (Homo sapiens (Human)) follow.

{"Molecule": "CC1Cn2c(nnc2-c2csc(-c3ccc(F)cc3)n2)CN1C(=O)c1ccc(-c2cccs2)cc1 (stereo not shown) [Compound 107]", "Measured Target": "human NK-3 receptor (Homo sapiens (Human))", "pKi": "6.00 to 6.30"}
{"Molecule": "C[C@H]1c2nnc(-c3csc(-c4ccccc4)n3)n2CCN1C(=O)c1ccc(F)cc1 [Compound 167]", "Measured Target": "human NK-3 receptor (Homo sapiens (Human))", "pKi": "6.00 to 6.30"}
{"Molecule": "O=C(c1ccc(F)cc1)N1CCn2c(nnc2-c2nc(-c3ccc(F)cc3)no2)C1 [Compound 175]", "Measured Target": "human NK-3 receptor (Homo sapiens (Human))", "pKi": "> 6.30"}
{"Molecule": "C[C@@H]1c2nnc(-c3csc(N4CCOCC4)n3)n2CCN1C(=O)c1ccc(-c2ccc(F)cc2)cc1 [Compound 134]", "Measured Target": "human NK-3 receptor (Homo sapiens (Human))", "pKi": "> 6.30"}
{"Molecule": "CC1c2nnc(-c3csc(-c4ccccc4)n3)n2CCN1C(=O)c1ccc(-c2ccsc2)cc1 (stereo not shown) [Compound 64]", "Measured Target": "human NK-3 receptor (Homo sapiens (Human))", "pKi": "> 6.30"}
{"Molecule": "CC(C)C1c2nnc(-c3csc(-c4ccccc4)n3)n2CCN1C(=O)c1ccc(F)cc1 (stereo not shown) [Compound 43]", "Measured Target": "human NK-3 receptor (Homo sapiens (Human))", "pKi": "5.30 to 6.00"}
{"Molecule": "O=C(c1ccc(-c2cccs2)cc1)N1CCn2c(nnc2-c2noc(-c3ccccc3)n2)C1 [Compound 171]", "Measured Target": "human NK-3 receptor (Homo sapiens (Human))", "pKi": "> 6.30"}
{"Molecule": "O=C(c1ccc(-c2cccs2)cc1)N1CCn2c(nnc2-c2nc(-c3ccc(F)cc3F)no2)C1 [Compound 185]", "Measured Target": "human NK-3 receptor (Homo sapiens (Human))", "pKi": "< 5.30"}
{"Molecule": "O=C(c1ccc(-c2ccccc2)cc1)N1CCn2c(nnc2-c2nc(-c3ccccc3)no2)C1 [Compound 217]", "Measured Target": "human NK-3 receptor (Homo sapiens (Human))", "pKi": "> 6.30"}
{"Molecule": "CN(C)c1ccc(-c2nc(-c3nnc4n3CCN(C(=O)c3ccc(F)cc3)C4)cs2)cc1 [Compound 221]", "Measured Target": "human NK-3 receptor (Homo sapiens (Human))", "pKi": "6.00 to 6.30"}
{"Molecule": "C[C@@H]1c2nnc(-c3csc(N4CCOCC4)n3)n2CCN1C(=O)c1ccc(-c2cccs2)cc1 [Compound 136]", "Measured Target": "human NK-3 receptor (Homo sapiens (Human))", "pKi": "> 6.30"}
{"Molecule": "O=C(c1ccc(F)cc1)N1CCn2c(nnc2-c2nc(-c3ccccc3)cs2)C1 [Compound 57]", "Measured Target": "human NK-3 receptor (Homo sapiens (Human))", "pKi": "> 6.30"}
{"Molecule": "CC1c2nnc(-c3csc(-c4ccc(F)cc4)n3)n2CCN1C(=O)c1ccc(-c2ccccc2)cc1 (stereo not shown) [Compound 76]", "Measured Target": "human NK-3 receptor (Homo sapiens (Human))", "pKi": "> 6.30"}
{"Molecule": "CC1(C)CCN(c2nc(-c3nnc4n3CCN(C(=O)c3ccc(F)cc3)C4)cs2)CC1 [Compound 276]", "Measured Target": "human NK-3 receptor (Homo sapiens (Human))", "pKi": "< 5.30"}
{"Molecule": "CS(=O)(=O)Nc1ccc(-c2nc(-c3nnc4n3CCN(C(=O)c3ccc(-c5cccs5)cc3)C4)cs2)cc1 [Compound 283]", "Measured Target": "human NK-3 receptor (Homo sapiens (Human))", "pKi": "6.00 to 6.30"}
{"Molecule": "Cc1ccc(-c2nc(-c3nnc4n3CCN(C(=O)c3ccc(F)cc3)C4)cs2)cc1 [Compound 190]", "Measured Target": "human NK-3 receptor (Homo sapiens (Human))", "pKi": "> 6.30"}
